Every entry's value here was drawn from patent US11965039B2.

target: T1, Human C3 (Complement tech cat #A113c) (human, UniProt P01024 23-1663); assay: SPR (Biacore T200), human C3 immobilised, peptide injected, 1:1 fit
T1 construct: Purified protein immobilised by amine coupling in the SPR assay; in the haemolysis assay it is the C3 of diluted human serum; Native C3 consists of a beta and an alpha chain cut from one precursor; also called C3 protein
T1 sequence (P01024 23-1663 limits assumed): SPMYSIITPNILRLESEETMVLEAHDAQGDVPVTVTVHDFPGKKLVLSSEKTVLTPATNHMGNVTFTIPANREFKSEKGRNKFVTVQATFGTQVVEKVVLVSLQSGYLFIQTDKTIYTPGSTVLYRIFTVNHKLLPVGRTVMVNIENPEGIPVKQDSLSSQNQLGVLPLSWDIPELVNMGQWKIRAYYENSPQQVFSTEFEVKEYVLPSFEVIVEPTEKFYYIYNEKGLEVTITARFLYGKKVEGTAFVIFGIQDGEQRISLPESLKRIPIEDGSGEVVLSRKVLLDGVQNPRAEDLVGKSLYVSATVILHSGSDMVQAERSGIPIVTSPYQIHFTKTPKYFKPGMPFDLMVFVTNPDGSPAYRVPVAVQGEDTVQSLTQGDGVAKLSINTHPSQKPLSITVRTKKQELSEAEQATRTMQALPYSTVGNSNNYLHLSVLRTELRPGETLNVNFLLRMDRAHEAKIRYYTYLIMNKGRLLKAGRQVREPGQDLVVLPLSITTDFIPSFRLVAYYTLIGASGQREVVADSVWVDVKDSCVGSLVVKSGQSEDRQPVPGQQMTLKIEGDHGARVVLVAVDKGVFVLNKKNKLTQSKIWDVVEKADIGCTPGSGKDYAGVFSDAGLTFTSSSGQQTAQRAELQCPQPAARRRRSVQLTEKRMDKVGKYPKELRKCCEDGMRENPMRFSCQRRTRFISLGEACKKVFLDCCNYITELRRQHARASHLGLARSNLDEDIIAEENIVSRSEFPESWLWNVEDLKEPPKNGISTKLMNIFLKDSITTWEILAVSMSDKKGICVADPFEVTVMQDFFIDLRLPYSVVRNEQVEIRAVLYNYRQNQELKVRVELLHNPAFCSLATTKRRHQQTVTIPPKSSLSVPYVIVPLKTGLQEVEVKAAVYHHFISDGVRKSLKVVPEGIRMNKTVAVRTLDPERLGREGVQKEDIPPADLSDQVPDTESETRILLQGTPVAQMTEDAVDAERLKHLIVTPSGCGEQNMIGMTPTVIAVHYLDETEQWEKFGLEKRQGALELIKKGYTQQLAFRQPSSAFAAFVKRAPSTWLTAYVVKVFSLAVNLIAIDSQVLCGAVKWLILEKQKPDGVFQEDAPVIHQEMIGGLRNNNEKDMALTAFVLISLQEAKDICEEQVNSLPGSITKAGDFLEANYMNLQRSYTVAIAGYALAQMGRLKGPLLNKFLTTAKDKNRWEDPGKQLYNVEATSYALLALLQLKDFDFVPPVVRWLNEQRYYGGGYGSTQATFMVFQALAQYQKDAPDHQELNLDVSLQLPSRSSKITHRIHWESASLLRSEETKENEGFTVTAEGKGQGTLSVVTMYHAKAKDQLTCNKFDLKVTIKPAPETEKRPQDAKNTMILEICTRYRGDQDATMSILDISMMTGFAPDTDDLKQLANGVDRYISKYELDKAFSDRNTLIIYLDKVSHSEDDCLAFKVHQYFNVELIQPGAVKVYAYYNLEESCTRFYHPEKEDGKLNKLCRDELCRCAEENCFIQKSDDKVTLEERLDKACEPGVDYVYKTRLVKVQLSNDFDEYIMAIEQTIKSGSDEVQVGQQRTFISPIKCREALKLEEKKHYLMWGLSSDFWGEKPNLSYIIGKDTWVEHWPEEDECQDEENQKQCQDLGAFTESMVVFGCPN
Positions of bridges follow the written chain, without caps; N, C: chain ends. Non-standard residues stand in square brackets, D forms with d. Trp(1-Me) = Cn1cc(C[C@H](N)C(=O)O)c2ccccc21; NMeI = CC[C@H](C)[C@H](NC)C(=O)O; Sar = CNCC(=O)O
assay-metric: pKd
Kindly note that pKd refers to -log10 of the concentration in mol/L and answer with the value alone.

Inquiry: // query pKd value for entry H-[dY]ICI[Trp(1-Me)]QDW[Sar]AHRC[NMeI]-NH2 (disulfide 3-13; SMILES CC[C@H](C)[C@H](NC(=O)[C@H](N)Cc1ccc(O)cc1)C(=O)N[C@H]1CSSC[C@@H](C(=O)N(C)[C@H](C(N)=O)[C@@H](C)CC)NC(=O)[C@H](CCCNC(=N)N)NC(=O)[C@H](Cc2c[nH]cn2)NC(=O)[C@H](C)NC(=O)CN(C)C(=O)[C@H](Cc2c[nH]c3ccccc23)NC(=O)[C@H](CC(=O)O)NC(=O)[C@H](CCC(N)=O)NC(=O)[C@H](Cc2cn(C)c3ccccc23)NC(=O)[C@H]([C@@H](C)CC)NC1=O) [Compound 48]
Reply text: 9.92

Inquiry: // query pKd value for entry Ac-ICVWQDWGEHRCTGAES-NH2 (disulfide 2-12; SMILES CC[C@H](C)[C@H](NC(C)=O)C(=O)N[C@H]1CSSC[C@@H](C(=O)N[C@H](C(=O)NCC(=O)N[C@@H](C)C(=O)N[C@@H](CCC(=O)O)C(=O)N[C@@H](CO)C(N)=O)[C@@H](C)O)NC(=O)[C@H](CCCNC(=N)N)NC(=O)[C@H](Cc2c[nH]cn2)NC(=O)[C@H](CCC(=O)O)NC(=O)CNC(=O)[C@H](Cc2c[nH]c3ccccc23)NC(=O)[C@H](CC(=O)O)NC(=O)[C@H](CCC(N)=O)NC(=O)[C@H](Cc2c[nH]c3ccccc23)NC(=O)[C@H](C(C)C)NC1=O) [Compound D]
Reply text: 6.64

Inquiry: // query pKd value for entry Ac-ICVWQDWGEHRCT-NH2 (disulfide 2-12; SMILES CC[C@H](C)[C@H](NC(C)=O)C(=O)N[C@H]1CSSC[C@@H](C(=O)N[C@H](C(N)=O)[C@@H](C)O)NC(=O)[C@H](CCCNC(=N)N)NC(=O)[C@H](Cc2c[nH]cn2)NC(=O)[C@H](CCC(=O)O)NC(=O)CNC(=O)[C@H](Cc2c[nH]c3ccccc23)NC(=O)[C@H](CC(=O)O)NC(=O)[C@H](CCC(N)=O)NC(=O)[C@H](Cc2c[nH]c3ccccc23)NC(=O)[C@H](C(C)C)NC1=O) [Compound A]
Reply text: 6.89
